# assayDetails: Plasma stability assay
# Format: in vitro ADME
# experimentalContext: human, plasma, 37 °C, 2 h, read-out: Human plasma stability (% remaining after 2 h)
resultType: remaining at 2 h, 10 μM

chemicalstring=C[C@@H](Oc1cccc(-n2cc3c(n2)CCCC3)c1)C(=O)Nc1nnc(C(F)(F)F)s1 measuredresult=94%

----------
# assayDetails: Pharmacokinetic study in male ICR mice (IP and IV)
# Assay type: in vivo, mouse
# experimentalContext: IV, 0.5 mg/kg, male ICR mouse plasma
# Description: TIPTP at a dose of 0.5 mg/kg and 1 mg/kg was administered intravenously and intraperitoneally to male ICR mice. […] Pharmacokinetic parameters were determined by a noncompartmental analysis using WinNonlin® (Pharsight Corporation, Mountain View, CA) program. The total area under the plasma concentration-time curve from time zero to the last measured time (AUClast) was calculated by the trapezoidal rule-extrapolation method. […] The lower limit of quantitation of the compound in mice plasma was 9.7 ng/mL. […]
resultType: MRT inf

chemicalstring=C[C@@H](Oc1cccc(-n2cc3c(n2)CCCC3)c1)C(=O)Nc1nnc(C(F)(F)F)s1 resulttype="MRT inf" measuredresult="2.57 h"

Provenance of the data: paper PMC7067850
